Data provenance is paper PMC11279401.

# viability at 24 h, 10 µM values compiled below
assay: Cytotoxicity assay (WST-1), viability of mouse peritoneal cells; type: cell-based; settings: primary mouse peritoneal cells (macrophages), 10 µM compound, mouse peritoneal cells 1.0 × 10^6/mL, 24 h, read-out: Cell viability (O.D.) relative to untreated controls

Check out these entries, answers already filled in.
{"columns": ["MOLECULE", "OBS_VALUE"],
 "data": [
  ["C=C(CO)C(=O)O[C@H]1CC(=C)[C@@H]2C[C@H](O)C(=C)[C@@H]2[C@H]2OC(=O)C(=C)[C@@H]21", "~50%"],
  ["C=C1C(=O)O[C@@H]2/C=C(\\C)CC/C=C(\\C)CC[C@@H]12 [Compound 16, costunolide]", "~50%"]
]}

Now examine the next entry.
### Prompt What measured viability at 24 h, 10 µM goes with C=C1C(=O)O[C@H]2[C@H]1CC/C(C)=C/CC[C@@]1(C)O[C@@H]21 [Compound 19, parthenolide] ?
### Response 81.1%
